# Tested on: CCRIS mutagenicity, Ames/micronucleus/aberration tests
# PROCEDURE_TEXT: CCRIS mutagenicity studies
# PARTICULARS: Test System: AMES SALMONELLA TYPHIMURIUM; Strain/Indicator: TA102; Metabolic Activation: NONE; Method: PREINCUBATION
Calls of active or inactive are those of the source. The rule behind the calls is not given here.
One label from this list, please: True (active), False (inactive)

Dear all, I need the recorded test outcome for `CCCCCCCCCCO` , thank you. False

###

# Tested on: CCRIS mutagenicity, Ames/micronucleus/aberration tests
# PROCEDURE_TEXT: CCRIS mutagenicity studies
# PARTICULARS: Test System: AMES SALMONELLA TYPHIMURIUM; Strain/Indicator: TA98; Metabolic Activation: MOUSE, LIVER, S-9; Method: STANDARD PLATE
# Text: The CCRIS database contains chemical records with carcinogenicity, mutagenicity, tumor promotion, and tumor inhibition test results. It was developed by the National Cancer Institute (NCI). Data are derived from studies cited in primary journals, current awareness tools, NCI reports, and other sources. Test results have been reviewed by experts in carcinogenesis and mutagenesis. CCRIS provides historical information from the years 1985 - 2011. It is no longer updated. […]
Calls of active or inactive are those of the source. How the calls were made is not given here.
One label from this list, please: active, inactive

Example entries begin here.
SMILES_TEXT: Nc1ccc(-c2ccc(N)cc2)cc1
CLASS_ASSIGNMENT: active
//
SMILES_TEXT: COc1ccc(N)c(OC)c1
CLASS_ASSIGNMENT: inactive
//
SMILES_TEXT: CC(=O)Nc1ccc(C(=O)CCl)cc1
CLASS_ASSIGNMENT: inactive

Dear all, I need the recorded test outcome for `CCN(N=O)c1ccccc1` , thank you. inactive

Dear all, I need the recorded test outcome for `Nc1ncc([N+](=O)[O-])s1` , thank you. inactive

Dear all, I need the recorded test outcome for `C#C[C@]1(O)CC[C@H]2[C@@H]3CCC4=C(CCC(=O)C4)[C@H]3CC[C@@]21C` , thank you. inactive

Dear all, I need the recorded test outcome for `O=C(CCCN1CCC(O)(c2ccc(Cl)cc2)CC1)c1ccc(F)cc1` , thank you. inactive

###

# Tested on: CCRIS mutagenicity, Ames/micronucleus/aberration tests
# PROCEDURE_TEXT: CCRIS mutagenicity studies
# PARTICULARS: Test System: AMES SALMONELLA TYPHIMURIUM; Strain/Indicator: TA2637; Metabolic Activation: NONE; Method: PREINCUBATION
Active and inactive are the calls of the source. No rule for the calls is given here.
One label from this list, please: True (active), False (inactive)

SMILES_TEXT: O=c1ccc(=O)c2c(=O)c(Cl)c(Cl)c(=O)c1=2
TESTED_ON: CCRIS mutagenicity, Ames/micronucleus/aberration tests
CLASS_ASSIGNMENT: True
--
SMILES_TEXT: O=C1C=CC(=O)c2ccccc21
TESTED_ON: CCRIS mutagenicity, Ames/micronucleus/aberration tests
CLASS_ASSIGNMENT: True
--
SMILES_TEXT: COc1cc(OC)c2c(=O)c3cc(OC)ccc3oc2c1
TESTED_ON: CCRIS mutagenicity, Ames/micronucleus/aberration tests
CLASS_ASSIGNMENT: True
--
SMILES_TEXT: O=C1C=CC(=O)C(c2ccccc2)=C1
TESTED_ON: CCRIS mutagenicity, Ames/micronucleus/aberration tests
CLASS_ASSIGNMENT: False
--
SMILES_TEXT: O=C1C=CC(=O)C=C1
TESTED_ON: CCRIS mutagenicity, Ames/micronucleus/aberration tests
CLASS_ASSIGNMENT: False

Dear all, I need the recorded test outcome for `O=C1C=CC(=O)c2c(O)c(Cl)c(Cl)c(O)c21` , thank you. False

Dear all, I need the recorded test outcome for `CC1=CC(=O)C(C(C)C)=CC1=O` , thank you. True

Dear all, I need the recorded test outcome for `O=C1C=C(Nc2ccccc2)C(=O)c2ccccc21` , thank you. True

###

# Tested on: CCRIS mutagenicity, Ames/micronucleus/aberration tests
# PROCEDURE_TEXT: CCRIS mutagenicity studies
# PARTICULARS: Test System: AMES SALMONELLA TYPHIMURIUM; Strain/Indicator: TA1538; Metabolic Activation: RAT LIVER S-9, PHENOBARBITAL AND BETA-NAPHTHOFLAVONE; Method: PREINCUBATION
# Source text: The CCRIS database contains chemical records with carcinogenicity, mutagenicity, tumor promotion, and tumor inhibition test results. It was developed by the National Cancer Institute (NCI). Data are derived from studies cited in primary journals, current awareness tools, NCI reports, and other sources. Test results have been reviewed by experts in carcinogenesis and mutagenesis. CCRIS provides historical information from the years 1985 - 2011. It is no longer updated. […]
Calls of active or inactive are those of the source. How the calls were made is not given here.
One label from this list, please: yes (1) (active), no (0) (inactive)

Example entries begin here.
SMILES_TEXT: O=[N+]([O-])c1cccc2cccc([N+](=O)[O-])c12
TESTED_ON: CCRIS mutagenicity, Ames/micronucleus/aberration tests
CLASS_ASSIGNMENT: yes (1)
--
SMILES_TEXT: Nc1ccc(S(=O)(=O)O)c2ccccc12
TESTED_ON: CCRIS mutagenicity, Ames/micronucleus/aberration tests
CLASS_ASSIGNMENT: no (0)
--
SMILES_TEXT: N#Cc1ccccc1C#N
TESTED_ON: CCRIS mutagenicity, Ames/micronucleus/aberration tests
CLASS_ASSIGNMENT: no (0)
--
SMILES_TEXT: Nc1cc(S(=O)(=O)O)cc2cc(S(=O)(=O)O)cc(O)c12
TESTED_ON: CCRIS mutagenicity, Ames/micronucleus/aberration tests
CLASS_ASSIGNMENT: no (0)
--
SMILES_TEXT: O=C(O)c1cc2ccccc2cc1O
TESTED_ON: CCRIS mutagenicity, Ames/micronucleus/aberration tests
CLASS_ASSIGNMENT: no (0)
--
SMILES_TEXT: O=C=Nc1cccc2c(N=C=O)cccc12
TESTED_ON: CCRIS mutagenicity, Ames/micronucleus/aberration tests
CLASS_ASSIGNMENT: no (0)
--
SMILES_TEXT: c1ccc2cc(Nc3ccc(Nc4ccc5ccccc5c4)cc3)ccc2c1
TESTED_ON: CCRIS mutagenicity, Ames/micronucleus/aberration tests
CLASS_ASSIGNMENT: no (0)

Turning now to a further record.
Dear all, I need the recorded test outcome for `O=Cc1ccc(O)cc1` , thank you. no (0)

###

# System: CCRIS mutagenicity, Ames/micronucleus/aberration tests
# PROCEDURE_TEXT: CCRIS mutagenicity studies
# PARTICULARS: Test System: AMES SALMONELLA TYPHIMURIUM; Strain/Indicator: TA98; Metabolic Activation: RAT, LIVER, S-9, PHENOBARBITAL AND 5,6-BENZOFLAVONE; Method: PREINCUBATION
# Source text: The CCRIS database contains chemical records with carcinogenicity, mutagenicity, tumor promotion, and tumor inhibition test results. It was developed by the National Cancer Institute (NCI). Data are derived from studies cited in primary journals, current awareness tools, NCI reports, and other sources. Test results have been reviewed by experts in carcinogenesis and mutagenesis. CCRIS provides historical information from the years 1985 - 2011. It is no longer updated. […]
Calls of active or inactive are those of the source. The rule behind the calls is not given here.
One label from this list, please: True (active), False (inactive)

SMILES_TEXT: O=c1ccc(=O)c2c(=O)c(Cl)c(Cl)c(=O)c1=2
TESTED_ON: CCRIS mutagenicity, Ames/micronucleus/aberration tests
CLASS_ASSIGNMENT: False
//
SMILES_TEXT: O=C1C=CC(=O)c2c(O)c(Cl)c(Cl)c(O)c21
TESTED_ON: CCRIS mutagenicity, Ames/micronucleus/aberration tests
CLASS_ASSIGNMENT: False
//
SMILES_TEXT: O=[N+]([O-])c1ccc2c3c1ccc1cccc(c13)[C@@H]1O[C@H]21
TESTED_ON: CCRIS mutagenicity, Ames/micronucleus/aberration tests
CLASS_ASSIGNMENT: True

Dear all, I need the recorded test outcome for `O=C1C=CC(=O)C=C1` , thank you. False

Dear all, I need the recorded test outcome for `O=[N+]([O-])c1ccc(CO)c([N+](=O)[O-])c1` , thank you. True

###

# Tested on: CCRIS mutagenicity, Ames/micronucleus/aberration tests
# PROCEDURE_TEXT: CCRIS mutagenicity studies
# PARTICULARS: Test System: AMES SALMONELLA TYPHIMURIUM; Strain/Indicator: TA100; Metabolic Activation: NONE; Method: STANDARD PLATE
The source made the active and inactive calls. No rule for the calls is given here.
One label from this list, please: yes (1) = active, no (0) = inactive

MOLECULE: N=C(N)c1ccc(-c2cc3ccc(C(=N)N)cc3[nH]2)cc1
CLASS_ASSIGNMENT: no (0)

MOLECULE: C1=Cc2cc3ccccc3c3cccc1c23
CLASS_ASSIGNMENT: no (0)

MOLECULE: CC(C)[C@@H]1CC[C@@H](C)C[C@H]1O
CLASS_ASSIGNMENT: no (0)

MOLECULE: Cc1ccc(N(N)c2ccc(C)cc2)cc1
CLASS_ASSIGNMENT: no (0)

Dear all, I need the recorded test outcome for CC12CCC(=O)NC1=CCC1C2CCC2(C)C(OC(=O)CCCc3ccc(N(CCCl)CCCl)cc3)CCC12 (stereo not drawn) , thank you. yes (1)

Dear all, I need the recorded test outcome for `COC(=O)[C@H]1O[C@H]1c1ccccc1` , thank you. yes (1)

Dear all, I need the recorded test outcome for `CCCCCC/C=C\CCCCCCOC(C)=O` , thank you. no (0)
